biological target: HDAC6 (Homo sapiens); construct: purchased Reaction Biology Corporation (assay run by the CRO); test: HDAC6 inhibition, full IC50 measurement (Reaction Biology; fluorogenic p53 peptide RHKK(Ac)AMC); format: biochemical; conditions: Conc. 4.12E-08 M, t1
Peptide text beside a SMILES is read from it.
QUANTITY_KIND: HDAC6 activity raw data (signal)

1) N=C(N)NCCC[C@@H]1NC(=O)[C@H](Cc2c[nH]c3ccccc23)NC(=O)[C@H](CC(=O)O)NC(=O)[C@@H](CO)NC(=O)[C@H](Cc2c[nH]c3ccccc23)NC(=O)[C@H](CCCCCS)NC(=O)[C@H](CCC(N)=O)NC1=O [des4.1.0, SHA-Trp-dSer-Asp-Trp-Arg-Gln] (HELM PEPTIDE1{D.W.R.Q.[O=C([C@H](CCCCCS)N[*:1])[*:2]].W.[dS]}$PEPTIDE1,PEPTIDE1,1:R1-7:R2$$$V2.0): 772837
2) CSCC[C@H]1NC(=O)[C@@H](CO)NC(=O)[C@H](CC(N)=O)NC(=O)[C@H](CC(=O)O)NC(=O)[C@@H]([C@H](C)O)NC(=O)[C@H](Cc2c[nH]c3ccccc23)NC(=O)[C@H](CCCCCS)NC(=O)[C@H](CCCCN)NC(=O)[C@@H](CC(=O)O)NC1=O [des2.1.1, SHA-Trp-dThr-Asp-Asn-dSer-dMet-dAsp-Lys] (HELM PEPTIDE1{D.N.[dS].[dM].[dD].K.[O=C([C@H](CCCCCS)N[*:1])[*:2]].W.[dT]}$PEPTIDE1,PEPTIDE1,1:R1-9:R2$$$V2.0): 104749
3) C[C@H](O)[C@H]1NC(=O)[C@H](Cc2c[nH]c3ccccc23)NC(=O)[C@H](CCCCCS)NC(=O)[C@H](CCCCN)NC(=O)[C@@H](CC(=O)O)NC(=O)[C@@H](CCCCN)NC(=O)[C@@H](CO)NC(=O)[C@H](CC(N)=O)NC(=O)[C@H](CC(=O)O)NC1=O [des2.1.0, SHA-Trp-dThr-Asp-Asn-dSer-dLys-dAsp-Lys] (HELM PEPTIDE1{D.N.[dS].[dK].[dD].K.[O=C([C@H](CCCCCS)N[*:1])[*:2]].W.[dT]}$PEPTIDE1,PEPTIDE1,1:R1-9:R2$$$V2.0): 283586
4) CCCC[C@H]1NC(=O)[C@H](Cc2ccccc2)NC(=O)[C@H](CCCCCS)NC(=O)[C@@H](CCCNC(=N)N)NC(=O)[C@H](CC(=O)O)NC(=O)[C@@H](CO)NC(=O)[C@@H](C)NC(=O)[C@H](CCCCN)NC1=O [des4.3.1, SHA-Phe-dNle-Lys-dAla-dSer-Asp-dArg] (HELM PEPTIDE1{D.[dR].[O=C([C@H](CCCCCS)N[*:1])[*:2]].F.[CCCC[C@@H](N[*:1])C(=O)[*:2]].K.[dA].[dS]}$PEPTIDE1,PEPTIDE1,1:R1-8:R2$$$V2.0): 179198

----------
Target: HDAC6 (Homo sapiens)
Construct: purchased Reaction Biology Corporation (assay run by the CRO)
Sequence (Q9UBN7 1-1215): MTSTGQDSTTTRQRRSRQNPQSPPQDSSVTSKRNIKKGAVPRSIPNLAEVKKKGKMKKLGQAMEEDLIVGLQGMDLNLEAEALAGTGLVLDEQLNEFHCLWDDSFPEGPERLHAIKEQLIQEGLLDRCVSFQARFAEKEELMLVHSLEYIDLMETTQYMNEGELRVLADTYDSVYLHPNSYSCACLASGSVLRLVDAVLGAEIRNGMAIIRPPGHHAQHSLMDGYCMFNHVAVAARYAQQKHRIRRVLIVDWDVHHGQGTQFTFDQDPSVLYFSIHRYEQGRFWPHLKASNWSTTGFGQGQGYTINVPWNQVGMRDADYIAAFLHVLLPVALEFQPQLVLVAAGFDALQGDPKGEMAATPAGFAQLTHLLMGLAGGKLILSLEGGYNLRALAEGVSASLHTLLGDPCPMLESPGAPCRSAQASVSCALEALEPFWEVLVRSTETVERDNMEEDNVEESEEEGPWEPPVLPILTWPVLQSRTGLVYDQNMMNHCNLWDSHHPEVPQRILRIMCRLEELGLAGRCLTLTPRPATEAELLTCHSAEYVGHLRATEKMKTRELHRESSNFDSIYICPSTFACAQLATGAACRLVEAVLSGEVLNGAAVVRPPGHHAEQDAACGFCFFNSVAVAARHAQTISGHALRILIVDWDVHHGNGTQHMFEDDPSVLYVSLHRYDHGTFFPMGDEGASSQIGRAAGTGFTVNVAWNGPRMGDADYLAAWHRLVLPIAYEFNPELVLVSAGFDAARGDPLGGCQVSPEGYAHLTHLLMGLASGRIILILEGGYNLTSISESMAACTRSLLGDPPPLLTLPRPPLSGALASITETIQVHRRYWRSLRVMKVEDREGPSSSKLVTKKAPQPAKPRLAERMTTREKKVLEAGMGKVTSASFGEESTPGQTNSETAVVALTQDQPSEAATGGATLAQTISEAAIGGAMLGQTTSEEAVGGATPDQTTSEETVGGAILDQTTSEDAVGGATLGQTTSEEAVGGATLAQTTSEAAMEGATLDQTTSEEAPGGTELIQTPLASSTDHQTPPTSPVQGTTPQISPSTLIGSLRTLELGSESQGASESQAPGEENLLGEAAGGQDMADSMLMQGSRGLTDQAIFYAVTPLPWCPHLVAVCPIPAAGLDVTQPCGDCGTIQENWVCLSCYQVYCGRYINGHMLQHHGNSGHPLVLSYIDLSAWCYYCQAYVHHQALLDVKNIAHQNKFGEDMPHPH
Assay: HDAC6 inhibition, full IC50 measurement (Reaction Biology; fluorogenic p53 peptide RHKK(Ac)AMC)
Format: biochemical
Settings: Conc. 1.37E-08 M, t2
Peptide text beside a SMILES is read from it.
QUANTITY_KIND: HDAC6 activity raw data (signal)

1) CSCC[C@H]1NC(=O)[C@@H](CO)NC(=O)[C@H](CC(N)=O)NC(=O)[C@H](CC(=O)O)NC(=O)[C@@H]([C@H](C)O)NC(=O)[C@H](Cc2c[nH]c3ccccc23)NC(=O)[C@H](CCCCCS)NC(=O)[C@H](CCCCN)NC(=O)[C@@H](CC(=O)O)NC1=O [des2.1.1, SHA-Trp-dThr-Asp-Asn-dSer-dMet-dAsp-Lys] (HELM PEPTIDE1{D.N.[dS].[dM].[dD].K.[O=C([C@H](CCCCCS)N[*:1])[*:2]].W.[dT]}$PEPTIDE1,PEPTIDE1,1:R1-9:R2$$$V2.0): 185826
